Cited source: patent US20250145665A1

- tested-target: TNFα (Homo sapiens)
- Sequence (P01375 77-233 limits assumed): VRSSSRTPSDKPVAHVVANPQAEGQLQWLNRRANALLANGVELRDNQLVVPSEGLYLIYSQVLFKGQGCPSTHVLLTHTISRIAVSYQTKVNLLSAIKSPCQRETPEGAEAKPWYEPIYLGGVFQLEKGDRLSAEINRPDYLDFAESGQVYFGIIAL
- assay-comment: TNF-Induced HEK-Blue Assay
- Format: cell-based
- measurement-parameters: HEK-Blue-CD40L cells, NF-kB-driven secreted alkaline phosphatase reporter; TNFα 0.5 ng/ml; 18 h; read-out: TNF induced HEK-Blue assay IC50 value
Positions of bridges follow the written chain, without caps; N, C: chain ends. Non-standard residues stand in square brackets, D forms with d. Residues, ends and D or L forms follow the SMILES beside them. Ala(morpholin-4-yl) = N[C@@H](CN1CCOCC1)C(=O)O; Bip = N[C@@H](Cc1ccc(-c2ccccc2)cc1)C(=O)O; Phe(4-NH2) = Nc1ccc(C[C@H](N)C(=O)O)cc1; Hyp = O=C(O)[C@@H]1C[C@@H](O)CN1; Sar = CNCC(=O)O
readout-label: IC50

compound	IC50
CC(C)C[C@@H]1NC(=O)[C@H](CCCNC(=N)N)NC(=O)[C@H](C(C)C)NC(=O)[C@@H]2C[C@@H](O)CN2C(=O)[C@H](C(C)C)NC(=O)[C@H](CCCNC(=N)N)NC(=O)[C@H](CC(=O)O)NC(=O)[C@@H]2CCCN2C(=O)CN(C)C(=O)[C@H](Cc2ccc(-c3ccccc3)cc2)NC(=O)[C@H](Cc2ccc(-c3ccccc3)cc2)NC(=O)[C@H](Cc2ccccc2)NC(=O)CSC[C@@H](C(=O)NCC(N)=O)NC1=O [Example 39] ({CH2CO}-F[Bip][Bip][Sar]PDRV[Hyp]VRLCG-NH2; thioether N-13)	200 to 2000 nM

Inquiry: State the recorded IC50 for this entry: CC(C)C[C@@H]1NC(=O)[C@H](CCCNC(=N)N)NC(=O)[C@H](C(C)C)NC(=O)[C@@H]2CCCN2C(=O)[C@H](Cc2ccc(N)cc2)NC(=O)[C@H](CCCNC(=N)N)NC(=O)[C@H](CC(=O)O)NC(=O)[C@@H]2CCCN2C(=O)CN(C)C(=O)[C@H](Cc2ccc(-c3ccccc3)cc2)NC(=O)[C@H](Cc2ccc(-c3ccccc3)cc2)NC(=O)[C@H](CN2CCOCC2)NC(=O)CSC[C@@H](C(=O)NCC(N)=O)NC1=O [Example 55] ({CH2CO}-[Ala(morpholin-4-yl)][Bip][Bip][Sar]PDR[Phe(4-NH2)]PVRLCG-NH2; thioether N-13)
Reply text: 50 to 200 nM

---

- tested-target: UniProtKB P01375
- assay-comment: TNF-Induced HEK-Blue Assay
- Type: cell-based
- measurement-parameters: HEK-Blue-CD40L cells, NF-kB-driven secreted alkaline phosphatase reporter; TNFα 0.5 ng/ml; 18 h; read-out: TNF induced HEK-Blue assay IC50 value
pIC50: −log10 of the molar value. Starred links: 1 amine or outer side, 2 acyl side, 3 side chain; linkers in the order of their positions; H or OH if unused. Positions of bridges follow the written chain, without caps; N, C: chain ends. Non-standard residues stand in square brackets, D forms with d. Residues, ends and D or L forms follow the SMILES beside them. X46 = O=C(Cc1cccc(C(=O)O)c1)Nc1ccc(-c2ccc(C[C@H](N[*:1])C(=O)[*:2])cc2)cc1; Ala(morpholin-4-yl) = N[C@@H](CN1CCOCC1)C(=O)O; Bip = N[C@@H](Cc1ccc(-c2ccccc2)cc1)C(=O)O; Cha = N[C@@H](CC1CCCCC1)C(=O)O; Sar = CNCC(=O)O
// values below are reported pIC50

compound	pIC50
CC[C@H](C)[C@@H]1NC(=O)[C@@H](CCCNC(=N)N)NC(=O)[C@H](CC(=O)O)NC(=O)[C@H](Cc2cnc[nH]2)NC(=O)CN(C)C(=O)[C@H](Cc2ccc(-c3ccc(NC(=O)Cc4cccc(C(=O)O)c4)cc3)cc2)NC(=O)[C@H](Cc2ccc(-c3ccccc3)cc2)NC(=O)[C@H](CC2CCCCC2)NC(=O)CSC[C@@H](C(=O)NCC(N)=O)NC(=O)[C@H](CC(C)C)NC(=O)[C@H](Cc2cnc[nH]2)NC(=O)[C@H](C(C)C)NC(=O)[C@@H]2CCCN2C1=O [Example 328] ({CH2CO}-[Cha][Bip][X46][Sar]HD[dR]IPVHLCG-NH2; thioether N-13)	6.70 to 7.30

Inquiry: State the recorded pIC50 for this entry: CC(C)C[C@@H]1NC(=O)[C@H](CCCNC(=N)N)NC(=O)[C@H](C(C)C)NC(=O)CN(C)C(=O)[C@H](C(C)C)NC(=O)[C@@H](CCCNC(=N)N)NC(=O)[C@H](CC(=O)O)NC(=O)[C@H](Cc2ccc(O)cc2)NC(=O)CN(C)C(=O)[C@H](Cc2ccc(-c3ccccc3)cc2)NC(=O)[C@H](Cc2ccc(-c3ccccc3)cc2)NC(=O)[C@H](CN2CCOCC2)NC(=O)CSC[C@@H](C(=O)NCC(N)=O)NC1=O [Example 135] ({CH2CO}-[Ala(morpholin-4-yl)][Bip][Bip][Sar]YD[dR]V[Sar]VRLCG-NH2; thioether N-13)
Reply text: 5.70 to 6.70

---

- tested-target: TNFα (Homo sapiens)
- assay-comment: TNF-Induced HEK-Blue Assay
- Format: cell-based
- measurement-parameters: HEK-Blue-CD40L cells, NF-kB-driven secreted alkaline phosphatase reporter; TNFα 0.5 ng/ml; 18 h; read-out: TNF induced HEK-Blue assay IC50 value
Positions of bridges follow the written chain, without caps; N, C: chain ends. Non-standard residues stand in square brackets, D forms with d. Residues, ends and D or L forms follow the SMILES beside them. ξ: configuration not given here. Bip(4'-NHAc) = CC(=O)Nc1ccc(-c2ccc(C[C@H](N)C(=O)O)cc2)cc1; Bip = N[C@@H](Cc1ccc(-c2ccccc2)cc1)C(=O)O; Cha = N[C@@H](CC1CCCCC1)C(=O)O; ξE = NC(CCC(=O)O)C(=O)O; Sar = CNCC(=O)O
readout-label: IC50

Inquiry: State the recorded IC50 for this entry: CC(=O)Nc1ccc(-c2ccc(C[C@@H]3NC(=O)[C@H](Cc4ccc(-c5ccccc5)cc4)NC(=O)[C@H](CC4CCCCC4)NC(=O)CSC[C@@H](C(=O)NC(CCC(=O)O)C(N)=O)NC(=O)[C@H](CC(C)C)NC(=O)[C@H](Cc4ccc(O)cc4)NC(=O)[C@H](C(C)C)NC(=O)[C@@H]4CCCN4C(=O)[C@H](C(C)C)NC(=O)[C@@H](CCCNC(=N)N)NC(=O)[C@H](CC(=O)O)NC(=O)[C@@H]4CCCN4C(=O)CN(C)C3=O)cc2)cc1 (stereo partly shown) [Example 321] ({CH2CO}-[Cha][Bip][Bip(4'-NHAc)][Sar]PD[dR]VPVYLC[ξE]-NH2; thioether N-13)
Reply text: 50 to 200 nM

---

// values below are reported pIC50
- tested-target: TNFα (Homo sapiens)
- assay-comment: TNF-Induced HEK-Blue Assay
- Format: cell-based
- measurement-parameters: HEK-Blue-CD40L cells, NF-kB-driven secreted alkaline phosphatase reporter; TNFα 0.5 ng/ml; 18 h; read-out: TNF induced HEK-Blue assay IC50 value
pIC50: −log10 of the molar value. Positions of bridges follow the written chain, without caps; N, C: chain ends. Non-standard residues stand in square brackets, D forms with d. Residues, ends and D or L forms follow the SMILES beside them. Ala(morpholin-4-yl) = N[C@@H](CN1CCOCC1)C(=O)O; Bip = N[C@@H](Cc1ccc(-c2ccccc2)cc1)C(=O)O; 2Pal = N[C@@H](Cc1ccccn1)C(=O)O; Tic = O=C(O)[C@@H]1Cc2ccccc2CN1; Sar = CNCC(=O)O

compound	observed-result
CC(C)C[C@@H]1NC(=O)[C@H](Cc2ccc(O)cc2)NC(=O)[C@H](C(C)C)NC(=O)[C@@H]2CCCN2C(=O)[C@H](C(C)C)NC(=O)[C@@H](CCCNC(=N)N)NC(=O)[C@H](CC(=O)O)NC(=O)[C@@H]2CCCN2C(=O)CN(C)C(=O)[C@H](Cc2ccc(-c3ccccc3)cc2)NC(=O)[C@H](Cc2ccc(-c3ccccc3)cc2)NC(=O)[C@H](CN2CCOCC2)NC(=O)CSC[C@@H](C(=O)NCC(N)=O)NC1=O [Example 77] ({CH2CO}-[Ala(morpholin-4-yl)][Bip][Bip][Sar]PD[dR]VPVYLCG-NH2; thioether N-13)	5.70 to 6.70
CC(C)C[C@@H]1NC(=O)[C@H](CCCNC(=N)N)NC(=O)[C@H](C(C)C)NC(=O)[C@@H]2Cc3ccccc3CN2C(=O)[C@H](C(C)C)NC(=O)[C@H](CCCNC(=N)N)NC(=O)[C@H](CC(=O)O)NC(=O)[C@@H]2CCCN2C(=O)CN(C)C(=O)[C@H](Cc2ccc(-c3ccccc3)cc2)NC(=O)[C@H](Cc2ccc(-c3ccccc3)cc2)NC(=O)[C@H](Cc2ccccc2)NC(=O)CSC[C@@H](C(=O)NCC(N)=O)NC1=O [Example 40] ({CH2CO}-F[Bip][Bip][Sar]PDRV[Tic]VRLCG-NH2; thioether N-13)	6.70 to 7.30

Inquiry: State the recorded pIC50 for this entry: CC(C)C[C@@H]1NC(=O)[C@H](CCCNC(=N)N)NC(=O)[C@H](C(C)C)NC(=O)[C@@H]2CCCN2C(=O)[C@H](Cc2ccc(O)cc2)NC(=O)[C@H](CCCNC(=N)N)NC(=O)[C@H](CC(=O)O)NC(=O)[C@@H]2CCCN2C(=O)CN(C)C(=O)[C@H](Cc2ccc(-c3ccccc3)cc2)NC(=O)[C@H](Cc2ccc(-c3ccccc3)cc2)NC(=O)[C@H](Cc2ccccc2)NC(=O)CSC[C@@H](C(=O)NCC(N)=O)NC1=O [Example 15] ({CH2CO}-F[Bip][Bip][Sar]PDRYPVRLCG-NH2; thioether N-13)
Reply text: 5.70 to 6.70

Inquiry: State the recorded pIC50 for this entry: CC(C)C[C@@H]1NC(=O)[C@H](Cc2ccccn2)NC(=O)[C@H](C(C)C)NC(=O)[C@@H]2CCCN2C(=O)[C@H](C(C)C)NC(=O)[C@H](CCCNC(=N)N)NC(=O)[C@H](CC(=O)O)NC(=O)[C@@H]2CCCN2C(=O)CN(C)C(=O)[C@H](Cc2ccc(-c3ccccc3)cc2)NC(=O)[C@H](Cc2ccc(-c3ccccc3)cc2)NC(=O)[C@H](Cc2ccccc2)NC(=O)CSC[C@@H](C(=O)NCC(N)=O)NC1=O [Example 34] ({CH2CO}-F[Bip][Bip][Sar]PDRVPV[2Pal]LCG-NH2; thioether N-13)
Reply text: 5.70 to 6.70
